# ASSAY SYSTEM: human PCSK9 (Homo sapiens, UniProt Q8NBP7)
# Sequence (Q8NBP7 153-692): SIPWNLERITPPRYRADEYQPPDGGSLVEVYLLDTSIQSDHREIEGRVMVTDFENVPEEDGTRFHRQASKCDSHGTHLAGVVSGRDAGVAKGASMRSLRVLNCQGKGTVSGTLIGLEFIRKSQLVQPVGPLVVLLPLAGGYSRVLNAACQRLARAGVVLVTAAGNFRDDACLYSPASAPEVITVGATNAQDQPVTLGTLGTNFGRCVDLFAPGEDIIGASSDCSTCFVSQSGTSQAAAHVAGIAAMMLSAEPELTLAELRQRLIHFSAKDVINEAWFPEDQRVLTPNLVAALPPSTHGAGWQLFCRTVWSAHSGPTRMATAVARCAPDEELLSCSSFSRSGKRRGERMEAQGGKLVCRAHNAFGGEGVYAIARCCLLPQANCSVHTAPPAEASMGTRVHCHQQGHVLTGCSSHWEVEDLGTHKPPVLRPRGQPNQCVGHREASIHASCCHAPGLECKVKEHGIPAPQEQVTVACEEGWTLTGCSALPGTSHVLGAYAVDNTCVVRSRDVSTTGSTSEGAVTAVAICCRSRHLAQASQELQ
# Sequence (Q8NBP7 31-152 partner limits assumed): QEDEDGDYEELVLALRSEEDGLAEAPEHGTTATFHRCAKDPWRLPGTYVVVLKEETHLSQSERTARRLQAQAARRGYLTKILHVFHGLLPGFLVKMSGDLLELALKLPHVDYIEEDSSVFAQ
# PROTOCOL TEXT: PCSK9 ligand binding TR-FRET assay (interference with binding of human PCSK9 to human LDLR)
# EXPERIMENTAL SETUP: TR-FRET; human PCSK9 Alexa Fluor 647 / human LDLR extracellular domain-Europium Kryptate; read-out: PCSK9 FRET Assay IC50
pIC50: −log10 of the molar value.
ENDPOINT: pIC50

{"COMPOUND": "COC[C@@H]1NC(=O)[C@H](C)N(Cc2ccc(Cl)cc2Oc2ccc(-c3cnc(CN4CCCC4)n3C)c(C)c2)C(=O)C[C@@H](Cc2ccccc2)C(=O)N(C)[C@@H](C)CNC(=O)C[C@H](Cc2ccc(Cl)cc2)N(C)C1=O", "pIC50": 9.00}

P. COC[C@@H]1NC(=O)[C@H](C)N(Cc2ccc(Cl)cc2Oc2ccc(-c3cnc(CN(C)C)n3C)cc2)C(=O)C[C@@H](Cc2ccccc2)C(=O)N(C)[C@H]2CCOC[C@@H]2NC(=O)C[C@H](Cc2ccc(Cl)cc2)N(C)C1=O
Q. COC[C@@H]1NC(=O)[C@H](C)N(Cc2ccc(Cl)cc2Oc2ccc(-c3cnc(CN(C)C)n3C)cc2)C(=O)C[C@@H](C)C(=O)N(C)[C@H]2CCCC[C@@H]2NC(=O)C[C@H](Cc2ccc(Cl)cc2)N(C)C1=O
stdin: Form: Entry with minimum pIC50 (choose one): P / Q # reply format: chosen label
stdout: Q

###

# ASSAY SYSTEM: human PCSK9 (Homo sapiens)
# PROTOCOL TEXT: PCSK9 ligand binding TR-FRET assay (interference with binding of human PCSK9 to human LDLR)
# EXPERIMENTAL SETUP: PCSK9 FRET assay, efficacy (Amax); 100% = 1 uM unlabeled human PCSK9, 0% = DMSO
ENDPOINT: Max % inhibition (%)

{"MOLECULE": "COC[C@@H]1NC(=O)[C@H](C)N(Cc2ccc(Cl)cc2Oc2ccc(-c3cnc(CN(C)C)n3C)cc2)C(=O)C[C@@H](Cc2ccccc2)C(=O)N(C)C(C)C(C)NC(=O)C[C@H](Cc2ccc(Cl)cc2)N(C)C1=O (some centres unmarked)", "Max % inhibition [%]": 101.21}
{"MOLECULE": "COC[C@@H]1NC(=O)[C@H](C)N(Cc2ccc(Cl)cc2Oc2ccc(-c3cnc(CN(C)C)n3C)cc2)C(=O)C[C@@H](Cc2ccccc2)C(=O)N(C)[C@H]2CCOC[C@@H]2NC(=O)C[C@H](Cc2ccc(Cl)cc2)N(C)C1=O", "Max % inhibition [%]": 94.30}
{"MOLECULE": "COC[C@@H]1NC(=O)[C@H](C)N(Cc2ccc(Cl)cc2Oc2ccc(-c3cnc4c(CN5CCCC5)cccn34)cc2)C(=O)C[C@@H](Cc2ccccc2)C(=O)N(C)[C@@H](C)CNC(=O)C[C@H](Cc2ccc(Cl)cc2)N(C)C1=O", "Max % inhibition [%]": 54.00}
{"MOLECULE": "CCc1ccc(CN2C(=O)C[C@@H](Cc3ccccc3)C(=O)N(C)[C@H]3CCCC[C@@H]3NC(=O)C[C@H](Cc3ccc(Cl)cc3)N(C)C(=O)[C@H](COC)NC(=O)[C@@H]2C)c(Oc2ccc(-c3cnc(CN4CCCC4)n3C)cc2)c1", "Max % inhibition [%]": 100.16}
{"MOLECULE": "COC[C@@H]1NC(=O)[C@H](C)N(Cc2ccc(Cl)cc2Oc2ccc(-c3cnc(CN(C)C)n3C)cc2)C(=O)C[C@@H](Cc2ccccc2)C(=O)N(C)[C@@H]2C[C@@H]2NC(=O)C[C@H](Cc2ccc(Cl)cc2)N(C)C1=O", "Max % inhibition [%]": 104.08}
{"MOLECULE": "CCOc1ncc(-c2ccc(Oc3cc(Cl)ccc3CN3C(=O)C[C@@H](Cc4ccccc4)C(=O)N(C)[C@@H](C)CNC(=O)C[C@H](Cc4ccc(Cl)cc4)N(C)C(=O)[C@H](COC)NC(=O)[C@@H]3C)cc2)n1C", "Max % inhibition [%]": 77.84}

I. COC[C@@H]1NC(=O)[C@H](C)N(Cc2ccc(Cl)cc2Oc2ccc(-c3cnc(CN(C)C)n3C)cc2)C(=O)C[C@@H](OC)C(=O)N(C)[C@@H](C)CNC(=O)C[C@H](Cc2ccc(Cl)cc2)N(C)C1=O
II. COC[C@@H]1NC(=O)[C@H](C)N(Cc2ccc(Cl)cc2Oc2ccc(-c3cnc(CN4CCCC4)n3C)cc2)C(=O)C[C@@H](Cc2cccc(F)c2)C(=O)N(C)[C@@H](C)CNC(=O)C[C@H](Cc2ccc(Cl)cc2)N(C)C1=O
stdin: Lab note: check whether I or II has the lower measured Max % inhibition. Indicate which entry you chose by stating its label.
stdout: I
(I: 55.26%, II: 98.43%)

###

# ASSAY SYSTEM: human PCSK9 (Homo sapiens)
# PROTOCOL TEXT: PCSK9 ligand binding TR-FRET assay (interference with binding of human PCSK9 to human LDLR)
# EXPERIMENTAL SETUP: TR-FRET; human PCSK9 Alexa Fluor 647 / human LDLR extracellular domain-Europium Kryptate; read-out: PCSK9 FRET Assay IC50
# Procedure: The PCSK9 binding of the compounds of the disclosure were measured using a time resolved fluorescence resonance energy transfer (TR-FRET) assay. This time resolved fluorescence resonance energy transfer (TR-FRET) assay measures the ability of a compound of the present disclosure to interfere with the binding of human PCSK9 to human LDLR, providing measures of both potency (IC50) and efficacy (Amax). […] Data is expressed as percent inhibition: (value−0%)/(100%−0%).
ENDPOINT: IC50 (nM)

Please review the following examples before continuing.
{"COMPOUND": "COC[C@@H]1NC(=O)[C@H](CCN(C)C)N(Cc2ccc(Cl)cc2Oc2ccc(-c3cnc(CN(C)C)n3C)cc2)C(=O)C[C@@H](Cc2ccccn2)C(=O)N(C)[C@H]2CCCC[C@@H]2NC(=O)C[C@H](Cc2ccc(Cl)cc2)N(C)C1=O", "IC50 / nM": 0.4}
{"COMPOUND": "COC[C@@H]1NC(=O)[C@H](C)N(Cc2ccc(Cl)cc2Oc2ccc(-c3cnc(CN(C)C)n3C)cc2)C(=O)C[C@@H](Cc2ccccc2)C(=O)N(C)[C@@H](C)[C@H](C)NC(=O)C[C@H](Cc2ccc(Cl)cc2)N(C)C1=O", "IC50 / nM": 0.6}
{"COMPOUND": "COC[C@@H]1NC(=O)[C@H](CCO)N(Cc2ccc(Cl)cc2Oc2ccc(-c3cnc(CN(C)C)n3C)cc2)C(=O)C[C@@H](Cc2ccccc2)C(=O)N(C)[C@@H](C)CNC(=O)C[C@H](Cc2ccc(Cl)cc2)N(C)C1=O", "IC50 / nM": 497}
{"COMPOUND": "COC[C@@H]1NC(=O)[C@H](C)N(Cc2ccc(Oc3ccc(-c4cnc(CN(C)C)n4C)cc3)cc2F)C(=O)C[C@@H](Cc2ccccc2)C(=O)N(C)C2CCCCC2NC(=O)C[C@H](Cc2ccc(Cl)cc2)N(C)C1=O (stereo in doubt)", "IC50 / nM": 331}
{"COMPOUND": "COC[C@@H]1NC(=O)[C@H](C)N(Cc2ncccc2Oc2ccc(-c3cnc(CN(C)C)n3C)cc2)C(=O)C[C@@H](Cc2ccccc2)C(=O)N(C)[C@@H](C)CNC(=O)C[C@H](Cc2ccc(Cl)cc2)N(C)C1=O", "IC50 / nM": 33.2}

1. COC[C@@H]1NC(=O)[C@H](C)N(Cc2ccc(Cl)cc2Oc2ccc(-c3cnc(CN(C)C)n3C)cc2)C(=O)C[C@@H](Cc2cccc(C(F)F)c2)C(=O)N(C)[C@@H](C)CNC(=O)C[C@H](Cc2ccc(Cl)cc2)N(C)C1=O
2. COC[C@@H]1NC(=O)[C@H](C)N(Cc2ccc(Cl)cc2Oc2ccc(-c3cnc(CN(C)C)n3C)cc2)C(=O)C[C@@H](Cc2ccc(F)c(F)c2F)C(=O)N(C)[C@@H](C)[C@H](C)NC(=O)C[C@H](Cc2ccc(Cl)cc2)N(C)C1=O
stdin: Param metric = IC50; output whichever of 1 , 2 has the minimum value. Your answer should be the label attached to the chosen record.
stdout: 2
(2: 0.7 nM, 1: 2.6 nM)

1. COC[C@@H]1NC(=O)[C@H](C)N(Cc2ccc(Cl)cc2Oc2ccc(-c3cnc(CN(C)C)n3C)cc2)C(=O)CCC(=O)N(C)CCNC(=O)C[C@H](Cc2ccc(Cl)cc2)N(C)C1=O
2. COC[C@@H]1NC(=O)[C@H](CCN2CCOCC2)N(Cc2ccc(Cl)cc2Oc2ccc(-c3cnc(CN(C)C)n3C)cc2)C(=O)C[C@@H](Cc2ccccc2)C(=O)N(C)[C@@H](C)[C@H](C)NC(=O)C[C@H](Cc2ccc(Cl)cc2)N(C)C1=O
3. COC[C@@H]1NC(=O)[C@H](C)N(Cc2ccc(Cl)cc2Oc2ccc(-c3cncc(C4=CCNCC4)c3)cc2)C(=O)C[C@@H](Cc2ccccc2)C(=O)N(C)[C@@H](C)CNC(=O)C[C@H](Cc2ccc(Cl)cc2)N(C)C1=O
4. COC[C@@H]1NC(=O)[C@H](C)N(Cc2c(OCC(F)(F)F)cc(Cl)cc2Oc2ccc(-c3cnc(CN4CCCC4)n3C)cc2)C(=O)C[C@@H](C)C(=O)N(C)[C@@H](C)CNC(=O)C[C@H](Cc2ccc(Cl)cc2)N(C)C1=O
stdin: Arrange by IC50, high to low. Would you mind listing the labels in the order asked for?
stdout: 1, 4, 3, 2
